Where these numbers come from: patent US20240360228A1

# study-system: T1, human chemokine (C-C motif) receptor 8 (CCR8) (human, UniProt P51685 1-355)
# T1 construct: also called hCCR8
# T1 sequence (P51685 whole entry): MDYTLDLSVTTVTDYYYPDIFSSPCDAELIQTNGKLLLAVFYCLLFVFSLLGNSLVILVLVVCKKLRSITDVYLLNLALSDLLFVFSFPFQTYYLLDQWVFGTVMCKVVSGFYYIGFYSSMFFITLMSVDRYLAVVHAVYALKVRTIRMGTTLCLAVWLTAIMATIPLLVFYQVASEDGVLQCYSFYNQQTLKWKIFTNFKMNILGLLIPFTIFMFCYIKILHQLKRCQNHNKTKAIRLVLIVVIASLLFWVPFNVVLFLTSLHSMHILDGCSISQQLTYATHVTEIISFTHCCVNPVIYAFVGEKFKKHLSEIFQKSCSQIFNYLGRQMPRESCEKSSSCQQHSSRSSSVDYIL
# assay-procedure: flow cytometry blocking, human PBMC, CD3+ gate; competitor PE-AB15
reported-metric: % Blocking (%)
Quick reminder: number only, in %, skip the unit.

binder	% Blocking, %
anti-CCR8 monoclonal antibody AB7 (antibody, V domains shown, Hybridoma monoclonal; also called antibody 7; clone 7) VH: AVQLVESGGGLVQPKESLKISCAASGFTFSYAAMYWVRQTPGKGLEWVARIRTKPNNYATYYADSVKGRFTISRDDSKSMVYLQMDNLKSEDTAMYYCNIMGITRGYYFDYWGQGVMVTVSS VL: DIQMTQSPSFLSASVGDRVTINCKASQNINRYLNWYQQQLGEAPKLLIYNANNLQTGIPSRFSGSRSGTDFTLTISSLQPEDVATYFCLQHNSWPWTFGGGTKLELK	87.1
anti-CCR8 monoclonal antibody AB10 (antibody, V domains shown, Hybridoma monoclonal; also called antibody 10; clone 10) VH: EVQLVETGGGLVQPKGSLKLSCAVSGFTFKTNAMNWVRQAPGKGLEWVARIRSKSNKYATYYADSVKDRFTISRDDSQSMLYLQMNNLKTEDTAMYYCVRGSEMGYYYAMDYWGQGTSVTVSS VL: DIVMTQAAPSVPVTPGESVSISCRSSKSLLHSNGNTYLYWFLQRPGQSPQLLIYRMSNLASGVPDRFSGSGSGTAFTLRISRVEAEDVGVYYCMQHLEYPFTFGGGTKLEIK	95.6

For anti-CCR8 monoclonal antibody AB8 (antibody, V domains shown, Hybridoma monoclonal; also called antibody 8; clone 8) VH: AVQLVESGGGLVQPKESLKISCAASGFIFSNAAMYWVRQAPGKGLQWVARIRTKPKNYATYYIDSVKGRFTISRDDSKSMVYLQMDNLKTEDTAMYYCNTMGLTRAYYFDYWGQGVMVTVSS VL: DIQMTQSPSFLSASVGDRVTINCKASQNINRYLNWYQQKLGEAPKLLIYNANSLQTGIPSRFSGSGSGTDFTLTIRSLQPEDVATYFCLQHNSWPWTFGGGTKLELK the binder record lists % Blocking as 98.9

For anti-CCR8 monoclonal antibody AB6 (antibody, V domains shown, also called antibody 6; clone 6) VH: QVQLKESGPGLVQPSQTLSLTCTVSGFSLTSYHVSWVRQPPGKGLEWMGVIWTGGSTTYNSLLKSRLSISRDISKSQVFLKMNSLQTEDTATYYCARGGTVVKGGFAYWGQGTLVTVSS VL: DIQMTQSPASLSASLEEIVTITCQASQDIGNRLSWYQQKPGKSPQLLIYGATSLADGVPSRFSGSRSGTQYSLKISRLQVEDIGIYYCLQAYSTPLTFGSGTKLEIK the binder record lists % Blocking as 10

For anti-CCR8 monoclonal antibody AB11 (antibody, V domains shown, Hybridoma monoclonal; also called antibody 11; clone 11) VH: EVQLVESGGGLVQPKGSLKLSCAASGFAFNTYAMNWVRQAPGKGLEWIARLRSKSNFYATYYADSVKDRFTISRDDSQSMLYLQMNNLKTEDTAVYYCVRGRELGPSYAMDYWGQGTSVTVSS VL: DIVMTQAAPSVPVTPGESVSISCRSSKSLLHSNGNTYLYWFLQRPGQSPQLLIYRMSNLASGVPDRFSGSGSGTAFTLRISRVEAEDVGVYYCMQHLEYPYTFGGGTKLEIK the binder record lists % Blocking as 97.6

For anti-CCR8 monoclonal antibody AB13 (antibody, V domains shown, Hybridoma monoclonal; also called antibody 13; clone 13) VH: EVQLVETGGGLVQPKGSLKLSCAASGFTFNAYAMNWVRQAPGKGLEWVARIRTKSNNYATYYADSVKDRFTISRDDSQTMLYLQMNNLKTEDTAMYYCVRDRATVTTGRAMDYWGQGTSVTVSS VL: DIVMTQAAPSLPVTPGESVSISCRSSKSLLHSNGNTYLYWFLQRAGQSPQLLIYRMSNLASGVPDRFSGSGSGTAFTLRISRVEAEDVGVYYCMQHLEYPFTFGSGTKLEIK the binder record lists % Blocking as 46.5

For anti-CCR8 monoclonal antibody AB5 (antibody, V domains shown, Hybridoma monoclonal; also called antibody 5; clone 5) VH: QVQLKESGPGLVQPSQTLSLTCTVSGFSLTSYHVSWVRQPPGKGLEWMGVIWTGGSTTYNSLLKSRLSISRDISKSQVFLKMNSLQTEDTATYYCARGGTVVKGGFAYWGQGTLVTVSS VL: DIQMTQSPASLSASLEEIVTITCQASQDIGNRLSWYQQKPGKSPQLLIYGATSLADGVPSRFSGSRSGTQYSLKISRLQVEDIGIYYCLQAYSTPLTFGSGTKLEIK the binder record lists % Blocking as -2.58
